Data origin, for the record: BigSolDB 2.1

condition_summary: in ethanol, 278.15 K
metric: solubility (mole fraction)

mol=Nc1cc(Cl)ccc1C(=O)O test_result=0.00994

* * *

condition_summary: in n-butanol, 310.65 K
metric: solubility (mole fraction)

mol=Nc1cc(Cl)ccc1C(=O)O metric="solubility (mole fraction)" test_result=0.0232

* * *

condition_summary: in ethanol, 313.15 K
metric: solubility (mole fraction)

mol=Nc1cc(Cl)ccc1C(=O)O metric="solubility (mole fraction)" test_result=0.0293

* * *

condition_summary: in acetone, 305.65 K
metric: solubility (mole fraction)

mol=Nc1cc(Cl)ccc1C(=O)O metric="solubility (mole fraction)" test_result=0.0378

* * *

condition_summary: in ethyl acetate, 288.15 K
metric: solubility (mole fraction)

mol=Nc1cc(Cl)ccc1C(=O)O test_result=0.0176

* * *

condition_summary: in ethylbenzene, 310.65 K
metric: solubility (mole fraction)

mol=Nc1cc(Cl)ccc1C(=O)O metric="solubility (mole fraction)" test_result=0.000594

* * *

condition_summary: in n-propanol, 293.15 K
metric: solubility (mole fraction)

mol=Nc1cc(Cl)ccc1C(=O)O test_result=0.0144

* * *

condition_summary: in ethylbenzene, 308.15 K
metric: solubility (mole fraction)

mol=Nc1cc(Cl)ccc1C(=O)O test_result=0.000528

* * *

condition_summary: in n-butanol, 305.65 K
metric: solubility (mole fraction)

mol=Nc1cc(Cl)ccc1C(=O)O test_result=0.0199

* * *

condition_summary: in ethanol, 293.15 K
metric: solubility (mole fraction)

mol=Nc1cc(Cl)ccc1C(=O)O test_result=0.0164

* * *

condition_summary: in toluene, 288.15 K
metric: solubility (mole fraction)

mol=Nc1cc(Cl)ccc1C(=O)O metric="solubility (mole fraction)" test_result=0.000233

* * *

condition_summary: in ethanol, 305.65 K
metric: solubility (mole fraction)

mol=Nc1cc(Cl)ccc1C(=O)O metric="solubility (mole fraction)" test_result=0.0238

* * *

condition_summary: in n-propanol, 290.65 K
metric: solubility (mole fraction)

mol=Nc1cc(Cl)ccc1C(=O)O metric="solubility (mole fraction)" test_result=0.0134

* * *

condition_summary: in acetone, 285.65 K
metric: solubility (mole fraction)

mol=Nc1cc(Cl)ccc1C(=O)O test_result=0.0207

* * *

condition_summary: in n-propanol, 300.65 K
metric: solubility (mole fraction)

mol=Nc1cc(Cl)ccc1C(=O)O metric="solubility (mole fraction)" test_result=0.0184

* * *

condition_summary: in n-propanol, 298.15 K
metric: solubility (mole fraction)

mol=Nc1cc(Cl)ccc1C(=O)O test_result=0.017

* * *

condition_summary: in NMP, 295.65 K
metric: solubility (mole fraction)

mol=Nc1cc(Cl)ccc1C(=O)O metric="solubility (mole fraction)" test_result=0.0445

* * *

condition_summary: in ethylbenzene, 295.65 K
metric: solubility (mole fraction)

mol=Nc1cc(Cl)ccc1C(=O)O test_result=0.00029

* * *

condition_summary: in isopropanol, 313.15 K
metric: solubility (mole fraction)

mol=Nc1cc(Cl)ccc1C(=O)O metric="solubility (mole fraction)" test_result=0.0282

* * *

condition_summary: in isopropanol, 293.15 K
metric: solubility (mole fraction)

mol=Nc1cc(Cl)ccc1C(=O)O metric="solubility (mole fraction)" test_result=0.0155

* * *

condition_summary: in ethyl acetate, 300.65 K
metric: solubility (mole fraction)

mol=Nc1cc(Cl)ccc1C(=O)O metric="solubility (mole fraction)" test_result=0.0259

* * *

condition_summary: in 1,4-dioxane, 313.15 K
metric: solubility (mole fraction)

mol=Nc1cc(Cl)ccc1C(=O)O test_result=0.0436

* * *

condition_summary: in 1,4-dioxane, 290.65 K
metric: solubility (mole fraction)

mol=Nc1cc(Cl)ccc1C(=O)O test_result=0.0209

* * *

condition_summary: in acetone, 300.65 K
metric: solubility (mole fraction)

mol=Nc1cc(Cl)ccc1C(=O)O metric="solubility (mole fraction)" test_result=0.0328
